protocol_notes: Lipophilicity, log k of the compound from retention time in ODS HPLC
Measured log k, listed per entry.
Answer as a number with no unit attached.

Solved entries:
O=C1/C(=C/c2ccc3c(c2)OCO3)Oc2ccccc21: 0.624
CCOc1cc(/C=C2\Oc3ccccc3C2=O)ccc1O: 0.382

Can you look up the measured log k of COc1cccc(/C=C2\Oc3ccccc3C2=O)c1 [3'-METHOXY-AURONE] for me?
0.737

###

protocol_notes: Lipophilicity, log k of the compound from retention time in ODS HPLC
Note to self: log k under 0.7 means True, ties and anything higher get False.

Worked examples follow.
COc1ccc(/C=C2\Oc3ccccc3C2=O)cc1OC: False
COc1cc(/C=C2\Oc3ccccc3C2=O)cc(OC)c1: False
COc1cc(OC)c2c(c1)O/C(=C\c1ccc(OC)c(OC)c1)C2=O: True
COc1cc(OC)c2c(c1)O/C(=C\c1ccccc1)C2=O: True

Please find the next molecule below.
Criterion: log k strictly below 0.7. Is it met by O=C1/C(=C/c2cccc(Br)c2)Oc2ccccc21 ?
False
